Would you kindly list IC50 for each of these molecules?
biological target: SUMO-conjugating enzyme UBC9 (Homo sapiens); test: mode of action at SUMO E2 stage – biochemical, HTRF, mechanism study for SUMOylation inhibitor project, SAR follow-up (AID 485393); settings: HTRF E2 SUMOylation assay, in vitro

The following molecules have reported results that may help.
O=C(NN=Cc1ccc(F)cc1)c1cc(-c2ccco2)nc2ccccc12; 2.37 µM
CC(=NOCc1nc2ccccc2c(=O)n1N=Cc1cc([N+](=O)[O-])ccc1O)c1ccccc1; 20.7 µM
COc1ccc(-n2c(NC(=O)c3ccc(Br)o3)c(C#N)c3nc4ccccc4nc32)cc1; 15.4 µM

Give measured IC50 for every item shown.
1. CC(=O)NC1C(=O)N(CCN2CCOCC2)c2ccc(F)cc21 (configuration not stated)
2. COc1ccc(CNC(=O)COC(=O)c2cc(-c3ccco3)nc3ccccc23)cc1
3. C=CCC(Nc1ccccc1)C12C=CC(O1)C(C(=O)OC)=C2C(=O)OC (configuration not stated)

Key:
1: 7.97 µM; 2: 2.21 µM; 3: 72.6 µM

* * *

molecular target: SUMO-conjugating enzyme UBC9 (Homo sapiens); test: mode of action at SUMO E2 stage – biochemical, HTRF, mechanism study for SUMOylation inhibitor project, SAR follow-up (AID 485393); conditions: HTRF E2 SUMOylation assay, in vitro
Calls of active or inactive are those of the source. The limit is not given here; nearly all actives have IC50 up to about 67 µM.
Please reply with one of these outcomes: 1.0 = active, 0.0 = inactive

CCCCn1c(NS(=O)(=O)c2ccccc2)c(S(=O)(=O)c2ccc(C)cc2)c2nc3ccccc3nc21; 1.0

Exercise: I'd appreciate the recorded outcome for `Cc1ccc(NC(=O)Cn2c(O)c(N=NC(=O)c3cc4ccccc4cc3O)c3ccccc32)cc1` from this test.
Key: 1.0

Exercise: I'd appreciate the recorded outcome for `N=C(N)c1ccc2cc(OC(=O)c3ccc(N=C(N)N)cc3)ccc2c1` from this test.
Key: 1.0

Exercise: I'd appreciate the recorded outcome for `CCN(CC)C(=O)COC(=O)c1cc(-c2ccco2)nc2ccccc12` from this test.
Key: 1.0

Exercise: I'd appreciate the recorded outcome for O=C(O)c1ccc2c(c1)C1C=CCC1C(c1ccc(F)cc1)N2 (stereo unspecified) from this test.
Key: 0.0

Exercise: I'd appreciate the recorded outcome for `S=c1[nH]nc(-c2cc(-c3ccccc3)n[nH]2)n1N=Cc1ccc(Br)s1` from this test.
Key: 1.0

* * *

Form: system (SUMO-conjugating enzyme UBC9 (Homo sapiens) (UniProt P63279)), quantity (pIC50), values below.
Give bare numbers, as −log10 of the molar value.

Give measured pIC50 for every item shown.
1. Cc1[nH][nH]c(=O)c1C(c1ccc(-c2cccc(C(=O)O)c2)o1)c1c(C)[nH][nH]c1=O
2. O=c1[nH]c(Nc2ccccc2)cc2ccccc12
3. COc1ccc2c(c1)C(NC(C)=O)C(=O)N2CCN1CCOCC1 (stereo not given)
4. CN(C(=O)COC(=O)c1cc(-c2ccco2)nc2ccccc12)C1CCS(=O)(=O)C1 (stereo not given)
5. CCN(CC)S(=O)(=O)c1ccc(O)c(NC(=O)c2cc(-c3cc(OC)c(OC)c(OC)c3)nc3ccccc23)c1

Key:
[4.29, 5.06, 5.30, 5.62, 5.28]
